Values from patent US20150147274A1

Consider the following binders and their measured IC50, inhibition of HGF/SF-induced migration of SKOV-3 cells, Assay 1 readings.
# Target desc: human MET (c-Met) on cells (SKOV-3, BxPC3) (human, UniProt P08581 25-1390)
# Sequence (P08581 25-1390): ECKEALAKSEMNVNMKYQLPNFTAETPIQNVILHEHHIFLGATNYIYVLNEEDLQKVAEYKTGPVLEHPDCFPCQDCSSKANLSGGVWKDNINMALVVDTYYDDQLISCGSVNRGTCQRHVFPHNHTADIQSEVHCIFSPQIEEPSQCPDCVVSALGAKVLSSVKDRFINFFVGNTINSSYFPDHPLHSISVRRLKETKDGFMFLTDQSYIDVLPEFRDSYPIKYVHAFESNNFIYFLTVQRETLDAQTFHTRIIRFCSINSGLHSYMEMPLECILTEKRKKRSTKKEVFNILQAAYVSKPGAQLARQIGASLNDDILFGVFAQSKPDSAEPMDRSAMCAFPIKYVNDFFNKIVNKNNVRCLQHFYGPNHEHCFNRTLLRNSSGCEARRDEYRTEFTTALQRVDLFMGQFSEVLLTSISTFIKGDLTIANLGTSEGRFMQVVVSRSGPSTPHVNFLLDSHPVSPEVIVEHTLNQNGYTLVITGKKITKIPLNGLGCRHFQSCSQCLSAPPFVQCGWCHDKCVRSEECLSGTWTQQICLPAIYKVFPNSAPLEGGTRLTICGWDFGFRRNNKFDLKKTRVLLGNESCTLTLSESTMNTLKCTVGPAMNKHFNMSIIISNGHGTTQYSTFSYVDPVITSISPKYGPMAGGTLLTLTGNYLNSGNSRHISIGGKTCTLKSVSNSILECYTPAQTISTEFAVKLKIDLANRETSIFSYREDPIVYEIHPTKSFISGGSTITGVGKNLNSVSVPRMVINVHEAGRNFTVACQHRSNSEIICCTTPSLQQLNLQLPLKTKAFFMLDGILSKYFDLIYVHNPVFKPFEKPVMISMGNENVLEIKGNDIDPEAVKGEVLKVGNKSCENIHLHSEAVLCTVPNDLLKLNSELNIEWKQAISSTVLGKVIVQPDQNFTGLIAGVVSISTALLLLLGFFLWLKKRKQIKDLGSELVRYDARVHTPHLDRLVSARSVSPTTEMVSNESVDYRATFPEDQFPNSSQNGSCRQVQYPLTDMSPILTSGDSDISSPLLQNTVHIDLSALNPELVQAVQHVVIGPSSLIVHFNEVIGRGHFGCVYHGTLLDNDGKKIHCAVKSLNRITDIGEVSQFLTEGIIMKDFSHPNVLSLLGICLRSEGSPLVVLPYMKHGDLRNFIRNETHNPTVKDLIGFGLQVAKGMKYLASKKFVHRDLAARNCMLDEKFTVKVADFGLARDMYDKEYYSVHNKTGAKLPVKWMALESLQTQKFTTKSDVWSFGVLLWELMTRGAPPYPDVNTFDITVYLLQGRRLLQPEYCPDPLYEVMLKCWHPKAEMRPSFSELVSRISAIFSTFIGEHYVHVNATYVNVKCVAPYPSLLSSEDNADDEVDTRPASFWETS
# Method description: cell-based or functional assay

Reference set, count: 2
Binder	Result
7A2 Fab (His- and FLAG-tagged, hinged format) (Fab, V domains shown, Fab from pBIOCAM7-3F in HEK293 cells, hinged format (Leu-Glu after VH), hexahistidine and tri-FLAG tags at the C-terminus of the heavy chain) VH: QMQLVQSGAEVKKPGAPVKVSCKVSGYTFTDYYMHWVQQAPGKGLEWMGLVDPEDGETIYAEKFQGRVTITADTSTDTAYMELSSLRSEDTAVYYCATDATTPYYGMDVWGQGTLVTVSS VL: DIQMTQSPSSLSASVGDRVTITCQASQDISNYLNWYQQKPGRAPKVLIYDASNLETGVPSRFSGSGSGTEFTLTISNLRPDDFATYYCQQGDSFPLTFGGGTKVEIK	387 nM
107_A08 Fab (His/tri-FLAG tagged, hinged) (Fab, V domains shown, Fab from pBIOCAM7-3F, hinged, hexahistidine and tri-FLAG tags on the heavy chain) VH: QMQLVQSGAEVKKPGAPVKVSCKVSGYTFTDYYMHWVQQAPGKGLEWMGLVDPEDGETIYAEKFQGRVTITADTSTDTAYMELSSLRSEDTAVYYCATDATTPYWGMVEWGQGTLVTVSS VL: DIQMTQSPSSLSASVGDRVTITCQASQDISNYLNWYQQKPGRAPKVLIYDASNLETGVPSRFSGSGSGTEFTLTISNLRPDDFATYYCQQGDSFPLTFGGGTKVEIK	10.5 nM

Requested read-out: IC50, inhibition of HGF/SF-induced migration of SKOV-3 cells, Assay 1. Entry: 110_A01 Fab (His/tri-FLAG tagged, hinged) (Fab, V domains shown, Fab from pBIOCAM7-3F, hinged, hexahistidine and tri-FLAG tags on the heavy chain) VH: QMQLVQSGAEVKKPGAPVKVSCKVSGYTFTDYYMHWVQQAPGKGLEWMGLVDPEDGETIYAEKFQGRVTITADTSTDTAYMELSSLRSEDTAVYYCATDATTPYWFPYLWGQGTLVTVSS VL: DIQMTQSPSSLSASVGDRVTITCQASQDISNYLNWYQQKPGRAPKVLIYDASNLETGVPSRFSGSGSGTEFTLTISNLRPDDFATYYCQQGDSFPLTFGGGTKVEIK
9.6 nM
